- target.under.test: cyclic nucleotide phosphodiesterase (the enzyme of the present invention) isolated from rat cerebral cortex
- method.description: Effects of inhibitors on the enzymatic activity (two-step assay, cAMP hydrolysis)
- Type: biochemical
- condition: enzymatic activity in the absence of inhibitor made 100%
Catalogue of compounds with associated IC50

Please report the measured IC50 for COC(=O)C1=C(C)NC(C)=C(C(=O)OCCN(C)Cc2ccccc2)C1c1cccc([N+](=O)[O-])c1 (stereo not drawn)
> 300 µM

Please report the measured IC50 for CCCCOc1cc(CC2CNC(=O)N2)ccc1OC (stereo not drawn)
> 300 µM

Please report the measured IC50 for `CC(C)Cn1c(=O)n(C)c(=O)c2[nH]cnc21`
26.5 µM

Please report the measured IC50 for `CC(=O)Nc1ccc(-c2c[nH]c(=O)cn2)cc1`
> 300 µM

Please report the measured IC50 for `O=C1CCc2cc(OCCCCc3nnnn3C3CCCCC3)ccc2N1`
> 300 µM

Please report the measured IC50 for COc1ccc(C2CNC(=O)C2)cc1OC1CCCC1 (stereo not drawn)
> 300 µM

Source of measurements: patent US5728563A
